# System: HL-60(TB) leukemia
# assay text: NCI-60 one-dose screen, 48 h (100 = growth as untreated, 0 = no growth, -100 = all killed)
# condition: 10 µM unless noted
This is part of a sample that, as a whole, favours compounds with a hit. Of some 83,000 tested, about 20% had one in any assay.
value kind: growth (%)
Express your answer in %, writing the number without its unit.

Recorded results for 4 compounds are shown here.
compound	value kind	unit string	reported measurement
CCOP(=O)(OCC)C(=O)N(CC)CC	growth	%	91.8
CCCC(C)SP(=S)(SC(C)CCC)SC(C)CCC (stereo not drawn)	growth	%	106
O=C1C=CC(=O)N1CO	growth	%	-11.7
CC[C@H](C)[C@H](NC(=O)C12CC(NC)(C1)C2)C(=O)N(C)[C@H](C[C@@H](OC(C)=O)c1nc(C(=O)N[C@@H](Cc2ccccc2)C[C@H](C)C(=O)OC)cs1)C(C)C	growth	%	-32.5

Determine from records and report growth for Cn1cc(-c2csc(-c3cn(CCCCN4CCOCC4)c4ccc(F)cc34)n2)c2cccnc21 76.2

Determine from records and report growth for N#CC(C#N)=Cc1cccc(F)c1 97.2

Determine from records and report growth for Cc1ccc(NC2=N[C@]34CC(=O)CC[C@]3(C)[C@H]3CC[C@]5(C)C(=O)CC[C@H]5[C@@H]3C[C@@H]4S2)c(C)c1 9.29

Determine from records and report growth for CCC(=O)C(CC(C)N1CCCCCC1)(c1ccccc1)c1ccccc1 (stereo not drawn) 95.5

Determine from records and report growth for C[Se]/C=C1/C(=O)N(c2c(Cl)cccc2Cl)c2ccccc21 -39.7

====

# Test system: UACC-62 melanoma
# assay text: NCI-60 one-dose screen, 48 h
# condition: 10 µM unless noted
The panel holds about 83,000 compounds, 20% with a hit somewhere; the sample as a whole holds those more often. Activity calls are given as the source filed them. How the source made its calls: active means growth percent below 10; inactive means the rest.
Pick one and only one: active, inactive

compound	class name
Nc1nc(=S)nc(N)[nH]1	inactive

Any idea what this test logged for O=[N+]([O-])c1ccc(P(=O)(O)O)cc1 ? inactive

Any idea what this test logged for Oc1ccccc1C=NCCN=Cc1ccccc1O ? inactive

====

growth for assorted compounds
# Tested on: SF-539 CNS
# assay text: NCI-60 one-dose screen, 48 h (100 = growth as untreated, 0 = no growth, -100 = all killed)
# condition: 10 µM unless noted
The panel holds about 83,000 compounds, 20% with a hit somewhere; the sample as a whole holds those more often. The source made the active and inactive calls. How the source made its calls: active means growth percent below 10; inactive means the rest.

Recorded results for 5 compounds are shown here.
> print(dat)
                                   compound  reported.measurement
1              Oc1cc(Cl)ccc1Oc1ccc(Cl)cc1Cl      14.7% (inactive)
2                   CN1CCN(c2ccc(Cl)cc2)CC1      97.2% (inactive)
3                        O=C(O)CNCP(=O)(O)O       115% (inactive)
4  O=S(=O)(F)c1cccc(Cl)c1C[P+](c1ccccc1)(c1ccccc1)c1ccccc1       103% (inactive)
5  Cc1ccccc1-n1c(/C=C\c2ccccn2)nc2ccccc2c1=O      82.8% (inactive)

Determine from records and report growth for CC[C@H](C)[C@H](NC(=O)[C@H]1CCCCN1C)C(=O)N(C)[C@H](C[C@@H](OC(C)=O)c1nc(C(=O)N[C@@H](Cc2ccccc2)C[C@H](C)C(=O)O)cs1)C(C)C -10.5% (active)

Determine from records and report growth for C#COc1cccc(Nc2ncnc3cc(NC(=O)CF)ccc23)c1 29.3% [6.25 µM] (inactive)

Determine from records and report growth for CC/C(=C(\c1ccc(OCCN2CCOCC2)cc1)c1ccc(OC(=O)Cc2ccccc2)cc1)c1ccc(Cl)cc1 105% (inactive)

Determine from records and report growth for COc1cc(-c2ccc(N)c(OC)c2)ccc1N 110% (inactive)

Determine from records and report growth for O=C(O)c1cc([N+](=O)[O-])cc([N+](=O)[O-])c1 104% (inactive)

Determine from records and report growth for C[C@]12CCC3[C@@H](C[C@@H]4SC(Nc5ccccc5)=N[C@@]45CC(=O)CC[C@]35C)[C@@H]1CCC2=O (stereo partly drawn) -44.8% (active)

Determine from records and report growth for CC[C@H](C)[C@H](NC(=O)CN(C)C)C(=O)N(C)[C@H](C[C@@H](OC(C)=O)c1nc(C(=O)NC23CC(C(=O)OC)(C2)C3)cs1)C(C)C -8.6% (active)

Determine from records and report growth for CCOC(=O)C1C(C=C(C)C)C1(C)C (stereo not drawn) 93.5% (inactive)

Determine from records and report growth for C[N+]1(C)CCCC1c1cccnc1 (stereo not drawn) 107% (inactive)

Determine from records and report growth for CN1C2CCC1[C@@H](COC(=O)c1ccccc1)[C@@H](O)C2 (stereo partly drawn) 103% (inactive)

Determine from records and report growth for CC[C@H](C)[C@H](NC(=O)[C@H]1CCCCN1C)C(=O)N(C)[C@H](C(=O)NC12CC(C(=O)N[C@@H](Cc3ccccc3)C[C@H](C)C(=O)OC)(C1)C2)C(C)C 100% (inactive)

Determine from records and report growth for COC12CC3(C)C(C4=CC(=O)OC4)CCC3(O)C3CCC4=CC(=O)CCC4(CO1)C32 (stereo not drawn) 111% (inactive)

Determine from records and report growth for CC[PH+](CC)CC.O=COC1OC([S-])C(OC=O)C(OC=O)C1OC=O.[Au+] (stereo not drawn) -99.2% (active)

Determine from records and report growth for O=C(O)C1C(C(=O)O)C2(Cl)C(Cl)=C(Cl)C1(Cl)C2(Cl)Cl (stereo not drawn) 88.5% (inactive)

Determine from records and report growth for C[C@]12CC[C@H]3[C@@H](C[C@@H]4SC(Nc5cccc(F)c5)=N[C@@]45CC(=O)CC[C@]35C)[C@@H]1CCC2=O -5.93% (active)

Determine from records and report growth for C[C@@H]1C/C=C\C(=O)O[C@H](/C=C/C#C/C=C/C(C)(C)[C@@H](O)c2cccc(O)c2Br)[C@@H](C)/C=C/[C@H](C)C[C@H](OC(N)=O)C1 30.6% (inactive)

Determine from records and report growth for COC(=O)C1=CO[C@@H](C)[C@@H]2CN3CCc4c([nH]c5cc(OC)ccc45)[C@@H]3C[C@H]12 104% (inactive)

Determine from records and report growth for Cc1cc(N)ccc1N 95.8% (inactive)
